// data source = patent US11944622B2

Items are presented alongside their recorded EC50.
- Measurement Target: APJ Receptor (Homo sapiens, UniProt P35414)
- Sequence (P35414 1-380): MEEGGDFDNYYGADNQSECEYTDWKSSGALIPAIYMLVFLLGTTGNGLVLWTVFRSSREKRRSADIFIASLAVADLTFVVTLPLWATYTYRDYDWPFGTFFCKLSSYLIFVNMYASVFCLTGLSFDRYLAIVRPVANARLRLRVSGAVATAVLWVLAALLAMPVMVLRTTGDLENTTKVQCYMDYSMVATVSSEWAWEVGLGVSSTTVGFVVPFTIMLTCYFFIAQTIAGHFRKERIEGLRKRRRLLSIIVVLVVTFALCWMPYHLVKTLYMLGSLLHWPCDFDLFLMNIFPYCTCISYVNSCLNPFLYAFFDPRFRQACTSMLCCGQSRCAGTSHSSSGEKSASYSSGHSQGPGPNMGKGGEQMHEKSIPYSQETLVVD
- Procedure Details: APJ cAMP assay (DiscoverX enzyme fragment complementation; inhibition of forskolin-stimulated cAMP)
- Test Conditions: CHO-K1 cell line stably expressing the APJ Receptor; EC80 forskolin; 30 minutes at 37° C.; read-out: Potency Range (APJ cAMP EC50)

Illustrative cases are given below, each with its answer.
Compound	Measurement Target	EC50
CCOc1cccc(-c2nc3nc(Cl)c(NS(=O)(=O)Cc4ccccn4)nc3n2-c2c(OC)cccc2OC)n1 [Example 95]	APJ Receptor (Homo sapiens, UniProt P35414)	0.001 to 0.1 µM
CCOc1cccc(-c2nc3ncc(N)nc3n2-c2c(OC)cccc2OC)n1 [Example 10]	APJ Receptor (Homo sapiens, UniProt P35414)	0.001 to 0.1 µM
CCOc1cccc(-c2nc3ncc(NS(=O)(=O)Cc4ncc(C)cn4)nc3n2-c2c(OC)cccc2OC)n1 [Example 80]	APJ Receptor (Homo sapiens, UniProt P35414)	< 0.001 µM
CCOc1cccc(-c2nc3ncc(NS(C)(=O)=O)nc3n2-c2c(OC)cccc2C(F)(F)F)n1 [Example 48]	APJ Receptor (Homo sapiens, UniProt P35414)	0.001 to 0.1 µM
CCOc1cccc(-c2nc3ncc(NS(C)(=O)=O)nc3n2-c2c(OC)cccc2OC)n1 [Example 2]	APJ Receptor (Homo sapiens, UniProt P35414)	0.001 to 0.1 µM

The measured EC50 associated with CCOc1cccc(-c2nc3ncc(NS(=O)(=O)c4ncccn4)nc3n2-c2c(OC)cccc2OC)n1 [Example 41] reads 0.001 to 0.1 µM

The measured EC50 associated with CCOc1cccc(-c2nc3ncc(NS(=O)(=O)c4ccccc4)nc3n2-c2c(OC)cccc2OC)n1 [Example 5] reads < 0.001 µM

The measured EC50 associated with CCOCc1nc2ncc(NS(=O)(=O)c3ccccc3)nc2n1-c1c(OC)cccc1OC [Example 57] reads 0.1 to 10 µM

====

- Measurement Target: UniProtKB P35414
- Sequence (P35414 1-380): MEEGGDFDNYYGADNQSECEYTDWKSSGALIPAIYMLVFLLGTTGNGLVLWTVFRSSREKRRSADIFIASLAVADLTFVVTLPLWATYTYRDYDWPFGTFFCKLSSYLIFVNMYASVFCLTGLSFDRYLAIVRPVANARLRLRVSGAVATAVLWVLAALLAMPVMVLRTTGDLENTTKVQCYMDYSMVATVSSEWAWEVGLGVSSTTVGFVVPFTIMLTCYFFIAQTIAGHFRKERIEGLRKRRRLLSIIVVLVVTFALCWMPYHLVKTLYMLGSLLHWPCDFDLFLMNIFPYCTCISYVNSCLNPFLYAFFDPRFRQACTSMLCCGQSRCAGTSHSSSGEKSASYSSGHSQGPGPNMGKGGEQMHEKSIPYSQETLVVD
- Procedure Details: APJ cAMP assay (DiscoverX enzyme fragment complementation; inhibition of forskolin-stimulated cAMP)
- Test Conditions: CHO-K1 cell line stably expressing the APJ Receptor; EC80 forskolin; 30 minutes at 37° C.; read-out: Potency Range (APJ cAMP EC50)
pEC50: −log10 of the molar value.
Measured Parameter: pEC50

Illustrative cases are given below, each with its answer.
Compound	pEC50
COc1cccc(OC)c1-n1c(-c2cccc(OC(F)(F)F)n2)nc2ncc(NS(C)(=O)=O)nc21 [Example 56]	5.00 to 7.00
CCOc1cccc(-c2nc3nc(Cl)c(NS(=O)(=O)c4ccc(CF)cc4)nc3n2-c2c(OC)cccc2OC)n1 [Example 103]	> 9.00
C=Cc1nc2nc(-c3cccc(OCC)n3)n(-c3c(OC)cccc3OC)c2nc1NS(C)(=O)=O [Example 137]	7.00 to 9.00
CCOc1cccc(-c2nc3ncc(NS(C)(=O)=O)nc3n2-c2c(OC)ccnc2OC)n1 (atropisomer, axis not shown) [Example 85]	5.00 to 7.00
CCOc1cccc(-c2nc3nc(Cl)c(NS(=O)(=O)c4cccnc4)nc3n2-c2c(OC)cccc2OC)n1 [Example 104]	7.00 to 9.00
CCOc1cccc(-c2nc3ncc(N(C)C)nc3n2-c2c(OC)cccc2OC)n1 [Example 12]	5.00 to 7.00
CCOc1cccc(-c2nc3nnc(NS(=O)(=O)Cc4ccc(F)cc4)cc3n2-c2c(OC)cccc2OC)n1 [Example 122]	> 9.00
CCOc1cccc(-c2nc3nnc(NS(=O)(=O)CC4CC(C)(O)C4)cc3n2-c2c(OC)cccc2OC)n1 (stereo not drawn) [Example 128]	> 9.00

The measured pEC50 associated with CCOc1cccc(-c2nc3nc(CC4CC4)c(NS(C)(=O)=O)nc3n2-c2c(OC)cccc2OC)n1 [Example 65] reads > 9.00

The measured pEC50 associated with CCOc1cccc(-c2nc3nnc(NS(=O)(=O)Cc4ncc(C)cn4)cc3n2-c2c(OC)cccc2OC)n1 [Example 126] reads > 9.00

The measured pEC50 associated with CCCOc1nc2ncc(NS(=O)(=O)c3ccccc3)nc2n1-c1c(OC)cccc1OC [Example 134] reads 5.00 to 7.00

The measured pEC50 associated with CCOc1cccc(-c2nc3ncc(NS(=O)(=O)[C@H]4CC[C@@H](O)CC4)nc3n2-c2c(OC)cccc2OC)n1 [Example 40] reads 7.00 to 9.00
